assay-target: PI 3-kinase beta (Homo sapiens, UniProt P42338)
Sequence (P42338 whole entry): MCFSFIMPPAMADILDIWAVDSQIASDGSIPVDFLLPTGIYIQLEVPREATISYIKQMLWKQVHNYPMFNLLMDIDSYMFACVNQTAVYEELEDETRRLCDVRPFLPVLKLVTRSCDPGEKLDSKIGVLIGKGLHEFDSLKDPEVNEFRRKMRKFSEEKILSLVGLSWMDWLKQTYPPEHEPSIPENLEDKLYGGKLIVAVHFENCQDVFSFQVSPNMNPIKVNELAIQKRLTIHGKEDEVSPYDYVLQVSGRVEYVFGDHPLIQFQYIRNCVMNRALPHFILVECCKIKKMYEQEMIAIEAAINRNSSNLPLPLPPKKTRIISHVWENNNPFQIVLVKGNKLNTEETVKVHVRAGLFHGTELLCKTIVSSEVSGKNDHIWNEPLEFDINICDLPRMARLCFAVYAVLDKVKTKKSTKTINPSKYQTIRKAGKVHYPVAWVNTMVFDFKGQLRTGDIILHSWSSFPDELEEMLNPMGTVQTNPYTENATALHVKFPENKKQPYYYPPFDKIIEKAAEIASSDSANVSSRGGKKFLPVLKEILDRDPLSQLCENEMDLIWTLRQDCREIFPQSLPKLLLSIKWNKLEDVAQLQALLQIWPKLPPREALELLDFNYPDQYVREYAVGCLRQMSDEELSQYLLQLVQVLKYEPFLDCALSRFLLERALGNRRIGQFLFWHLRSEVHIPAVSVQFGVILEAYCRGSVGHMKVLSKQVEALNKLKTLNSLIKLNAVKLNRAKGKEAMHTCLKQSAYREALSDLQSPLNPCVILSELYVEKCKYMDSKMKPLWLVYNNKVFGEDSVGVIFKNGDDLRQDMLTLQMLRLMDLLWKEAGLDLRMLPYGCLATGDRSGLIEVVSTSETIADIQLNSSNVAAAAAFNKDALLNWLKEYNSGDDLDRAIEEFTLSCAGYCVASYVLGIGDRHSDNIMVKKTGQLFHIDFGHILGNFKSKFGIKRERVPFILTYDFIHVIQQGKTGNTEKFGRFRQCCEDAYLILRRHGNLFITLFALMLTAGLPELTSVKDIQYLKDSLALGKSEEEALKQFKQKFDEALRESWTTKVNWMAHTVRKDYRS
Sequence (P27986 461-568 partner): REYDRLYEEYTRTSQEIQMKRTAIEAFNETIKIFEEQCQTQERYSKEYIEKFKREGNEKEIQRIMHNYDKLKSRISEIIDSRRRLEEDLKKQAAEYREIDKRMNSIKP
experiment-notes: Kinase Glo Luminescent Kinase Assay (Kglo), assay B
Format: biochemical
condition: read-out: Assay B PI3Kβ IC50
measure: pIC50
pIC50 is a log-scale quantity: -log10 of the concentration expressed in molar.

Recorded pIC50, per entry:
                                   molecule                              assay_target  measure  measured_value
0  Cc1ccc(S(=O)(=O)NCC2(CO)CCOCC2)cc1-c1cnc(N)c(-n2cncn2)n1  PI 3-kinase beta (Homo sapiens, UniProt P42338)    pIC50            5.85
1  Cc1ccc(S(=O)(=O)NCC(C)(C)O)cc1-c1cnc(N)c(-c2ccoc2)n1  PI 3-kinase beta (Homo sapiens, UniProt P42338)    pIC50            5.40
2  Cc1cc(-c2nc(-c3cc(S(=O)(=O)NC4CCNC(=O)C4)ccc3C)cnc2N)ccn1 (stereo not shown)  PI 3-kinase beta (Homo sapiens, UniProt P42338)    pIC50            5.36

For Cc1ccc(S(=O)(=O)NC[C@H]2CCCO2)cc1-c1cnc(N)c(-n2cncn2)n1 , write its pIC50.
5.59

Determine its reported pIC50: Cc1ccc(S(=O)(=O)NCCC(C)(C)O)cc1-c1cnc(N)c(-c2cnn(CC(F)(F)F)c2)n1
5.55

* * *

experiment-notes: Microsomal clearance assay (M)
condition: intrinsic clearance in rat liver microsomes
Counter-ions that a name gives are not always drawn.
measure: Assay M RLM CI(int) (µL/min/mg)
Express your answer in µL/min/mg, writing the number without its unit.

Here are 3 compounds together with their reported answers.
>>> df
                                   compound              measure  unit_of_measurement  measured_value
0  CCONS(=O)(=O)c1ccc(C)c(-c2cnc(N)c(-n3cncn3)n2)c1  Assay M RLM CI(int)            µL/min/mg              62
1  Cc1cc(-c2nc(-c3cc(S(=O)(=O)NC[C@H]4CCNC4)ccc3C)cnc2N)ccn1  Assay M RLM CI(int)            µL/min/mg              15
2  Cc1ccc(S(=O)(=O)NC2CC3(CC(O)C3)C2)cc1-c1cnc(N)c(-n2cncn2)n1 (single isomer, unassigned) [Example 70b]  Assay M RLM CI(int)            µL/min/mg              57

# ---- query compound ----
// fetch Assay M RLM CI(int) given entry Cc1ccc(S(=O)(=O)NCC(C)(C)O)cc1-c1cnc(N)c(-n2cnc(CN(C)C)n2)n1 [Example 117, hydrochloride salt]
85

* * *

experiment-notes: Microsomal clearance assay (M)
condition: intrinsic clearance in rat liver microsomes
measure: Assay M RLM CI(int) (µL/min/mg)
Value expressed in µL/min/mg; do not type the unit.

Example cases with answers are listed next.
>>> df
                               given_smiles              measure  measured_value
0  Cc1cc(-c2nc(-c3cc(S(=O)(=O)NCCC(C)(C)O)ccc3C)cnc2N)on1  Assay M RLM CI(int)              46
1  Cc1ccc(S(=O)(=O)NCCC(C)(C)O)cc1-c1cnc(N)c(-c2cc(C3CC3)no2)n1  Assay M RLM CI(int)             152
2  Cc1ncn(-c2nc(-c3cc(S(=O)(=O)NCCC(C)(C)O)ccc3C)cnc2N)n1  Assay M RLM CI(int)              87

We next turn to a different compound, shown below.
Supply measured Assay M RLM CI(int) of Cc1ccc(S(=O)(=O)N2CC(CO)C2)cc1-c1cnc(N)c(-n2cncn2)n1 in your reply.
26
